Entry source: the supplement of paper PMC13380429

In this section, each of the molecules is paired with its reported relative viability EC50.
Tested on: Vero E6
assay.comment: relative viability EC50 (midpoint between 100% and the lowest measured viability); higher = less toxic
test.conditions: 72 h

Look over these answered cases.
| molecule | observed.result |
| --- | --- |
| NC(=O)N1c2ccccc2C=Cc2ccccc21 [carbamazepine] | > 10 µM |
| O=C(O)P(=O)(O)O [foscarnet] | > 10 µM |

Let's switch to this molecule now.
QUERY: So what does the record say about relative viability EC50 for CN(C)C(=O)N[C@H]1CC[C@H](CCN2CCN(c3cccc(Cl)c3Cl)CC2)CC1 [cariprazine] ?
RESULT: > 10 µM
